Taken from patent US12065443B2.

target: SIK3 (Homo sapiens, UniProt Q9Y2K2); construct: purchased SignalChem S12-11G-100; assay: biochemical
Sequence (Q9Y2K2 whole entry): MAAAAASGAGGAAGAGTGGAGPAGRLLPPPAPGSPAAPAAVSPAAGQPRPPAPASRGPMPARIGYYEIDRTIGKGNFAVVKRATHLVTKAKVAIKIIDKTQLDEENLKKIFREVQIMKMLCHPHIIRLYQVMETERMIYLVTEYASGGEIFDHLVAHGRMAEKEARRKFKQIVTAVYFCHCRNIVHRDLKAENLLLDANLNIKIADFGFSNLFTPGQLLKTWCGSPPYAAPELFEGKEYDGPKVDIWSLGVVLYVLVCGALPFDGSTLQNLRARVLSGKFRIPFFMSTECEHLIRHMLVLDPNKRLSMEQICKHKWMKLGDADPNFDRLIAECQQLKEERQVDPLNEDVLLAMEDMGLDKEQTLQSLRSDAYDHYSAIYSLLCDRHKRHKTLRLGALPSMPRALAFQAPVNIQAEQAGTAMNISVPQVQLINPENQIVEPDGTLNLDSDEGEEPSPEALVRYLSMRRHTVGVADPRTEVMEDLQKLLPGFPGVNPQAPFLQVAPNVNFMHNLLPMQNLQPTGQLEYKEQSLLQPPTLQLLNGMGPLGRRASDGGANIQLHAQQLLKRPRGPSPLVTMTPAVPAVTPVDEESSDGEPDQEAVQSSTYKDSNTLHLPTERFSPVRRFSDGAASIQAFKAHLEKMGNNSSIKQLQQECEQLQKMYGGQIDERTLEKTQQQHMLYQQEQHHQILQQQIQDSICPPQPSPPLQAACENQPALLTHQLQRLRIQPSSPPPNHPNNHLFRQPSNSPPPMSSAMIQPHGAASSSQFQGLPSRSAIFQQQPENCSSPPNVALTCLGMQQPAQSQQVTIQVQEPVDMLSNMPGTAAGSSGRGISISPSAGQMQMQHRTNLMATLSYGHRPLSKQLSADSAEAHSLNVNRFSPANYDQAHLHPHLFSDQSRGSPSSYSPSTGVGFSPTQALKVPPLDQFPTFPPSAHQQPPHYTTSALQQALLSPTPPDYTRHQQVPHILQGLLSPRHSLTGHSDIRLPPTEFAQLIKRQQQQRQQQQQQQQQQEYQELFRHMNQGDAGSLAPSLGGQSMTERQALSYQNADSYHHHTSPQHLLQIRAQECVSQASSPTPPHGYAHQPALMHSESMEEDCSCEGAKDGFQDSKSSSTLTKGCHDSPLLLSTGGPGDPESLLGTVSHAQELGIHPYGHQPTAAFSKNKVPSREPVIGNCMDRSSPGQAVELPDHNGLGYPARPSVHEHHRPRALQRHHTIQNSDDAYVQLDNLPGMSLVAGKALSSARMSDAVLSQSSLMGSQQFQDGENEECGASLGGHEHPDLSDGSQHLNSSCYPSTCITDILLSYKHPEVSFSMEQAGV
Would you kindly list IC50 for each of these molecules?

Some molecules with known IC50 results, for comparison:
{"molecule": "COc1cc(-c2cnc3cc(-c4cnccc4C(N)=O)ccn23)cc(OC)c1C(=O)NCC(F)(F)F", "IC50": "100 to 500 nM"}
{"molecule": "CCn1cc(-c2cnc3c(-c4cc(OC)c(C(=O)NCC(F)(F)F)c(OC)c4)cnn3c2)cn1", "IC50": "10 to 100 nM"}
{"molecule": "COc1cc(-n2cnc3cc(-c4cnn(C)c4)ccc32)cc(OC)c1C(=O)N1CCC1c1ccccc1 (stereo not drawn)", "IC50": "> 500 nM"}
{"molecule": "CCN1Cc2cc(-c3cnc4cc(-c5cnn(C)c5)ccn34)cc(OC)c2C1=O", "IC50": "10 to 100 nM"}
{"molecule": "COc1cc(-n2cnc3cc(-c4cnn(C)c4)ccc32)cc(OC)c1C(=O)NC1CCC1", "IC50": "10 to 100 nM"}

Please supply IC50 for each of the following items, keeping them in order.
1. CCn1cc(-c2cnc3c(-c4cc(OC)c(C(=O)NCC(F)F)c(OC)c4)cnn3c2)cn1
2. CCn1cc(-c2ccc3c(c2)ncn3-c2cc(OC)c(C(=O)N(C)CC#N)c(OC)c2)cn1

Completion:
1: 0.01 to 10 nM; 2: 10 to 100 nM

# batch: return IC50 for each of the 4 molecules below
1. COc1cc(-c2cnc3cc(-c4cn[nH]c4)ccn23)cc(OC)c1C(=O)NCC(F)(F)F
2. CCOC(=O)CCCn1cc(-c2ccn3c(-c4cc(OC)c(C(=O)NCC(F)(F)F)c(OC)c4)cnc3c2)cn1
3. CCOC(=O)C(C)n1cc(-c2ccn3c(-c4cc(OC)c(C(=O)NCC(F)(F)F)c(OC)c4)cnc3c2)cn1 (stereo not drawn)
4. COc1cc(-n2cnc3cc(-c4cnn(C)c4)ccc32)cc(OC)c1C(=O)N1CCC(c2ccccc2)C1 (stereo not drawn)

Completion:
1. 0.01 to 10 nM
2. 0.01 to 10 nM
3. 0.01 to 10 nM
4. > 500 nM

Batch lookup, IC50 per entry.
1. COc1cc(-c2cnc3cc(-c4cnccc4C#N)ccn23)cc(OC)c1C(=O)NCC(F)(F)F
2. CCNC(=O)c1c(OC)cc(-n2cnc3cc(-c4noc(C)n4)ccc32)cc1OC(F)F
3. COc1cc(-n2cnc3cc(-c4ccc(N5CCOCC5)nc4)ccc32)cc(OC)c1C(=O)NCC(F)(F)F

Completion:
1: 100 to 500 nM; 2: > 500 nM; 3: 10 to 100 nM

Quick batch: IC50 for everything below.
1. CCNC(=O)c1c(OC)cc(-c2cnc3cc(-c4cnn(C(F)F)c4)ccn23)cc1OC(F)F
2. COc1cc(-n2cnc3cc(-c4ccn(C)n4)ccc32)cc(OC)c1C(=O)NCC(F)(F)F
3. COc1cc(-c2cnc3cc(-c4cnn(C)c4)ccn23)cc(OC)c1C(=O)NC1CS(=O)(=O)C1
4. COc1cc(-n2cnc3cc(-c4cnn(C)c4)ccc32)cc(OC)c1C(=O)NC(C)(C)C(F)(F)F
5. CCn1cc(-c2ccc3c(c2)ncn3-c2cc(OC)c(C(=O)N(C)CC(C)C)c(OC)c2)cn1
6. COc1cc(-c2cnc3cc(-c4ccc(C#N)nc4)ccn23)cc(OC)c1C(=O)NCC(F)(F)F
7. COc1cc(-n2cnc3cc(-c4cnn(C)c4)ccc32)cc(OC)c1C(=O)Nc1ccnn1C
8. COc1cc(-n2cnc3cc(-c4cnn(C)c4)ccc32)cc(OC)c1C(=O)N1C(C)CC1C (stereo not drawn)

Completion:
["0.01 to 10 nM", "10 to 100 nM", "10 to 100 nM", "100 to 500 nM", "> 500 nM", "0.01 to 10 nM", "100 to 500 nM", "> 500 nM"]

---

target: SIK2 (Homo sapiens, UniProt Q9H0K1); construct: purchased ThermoFisher Scientific PV4792; test: biochemical; details: 33P radioactive SIK kinase assay, AMARA peptide, 10 μM ATP
Sequence (Q9H0K1 whole entry): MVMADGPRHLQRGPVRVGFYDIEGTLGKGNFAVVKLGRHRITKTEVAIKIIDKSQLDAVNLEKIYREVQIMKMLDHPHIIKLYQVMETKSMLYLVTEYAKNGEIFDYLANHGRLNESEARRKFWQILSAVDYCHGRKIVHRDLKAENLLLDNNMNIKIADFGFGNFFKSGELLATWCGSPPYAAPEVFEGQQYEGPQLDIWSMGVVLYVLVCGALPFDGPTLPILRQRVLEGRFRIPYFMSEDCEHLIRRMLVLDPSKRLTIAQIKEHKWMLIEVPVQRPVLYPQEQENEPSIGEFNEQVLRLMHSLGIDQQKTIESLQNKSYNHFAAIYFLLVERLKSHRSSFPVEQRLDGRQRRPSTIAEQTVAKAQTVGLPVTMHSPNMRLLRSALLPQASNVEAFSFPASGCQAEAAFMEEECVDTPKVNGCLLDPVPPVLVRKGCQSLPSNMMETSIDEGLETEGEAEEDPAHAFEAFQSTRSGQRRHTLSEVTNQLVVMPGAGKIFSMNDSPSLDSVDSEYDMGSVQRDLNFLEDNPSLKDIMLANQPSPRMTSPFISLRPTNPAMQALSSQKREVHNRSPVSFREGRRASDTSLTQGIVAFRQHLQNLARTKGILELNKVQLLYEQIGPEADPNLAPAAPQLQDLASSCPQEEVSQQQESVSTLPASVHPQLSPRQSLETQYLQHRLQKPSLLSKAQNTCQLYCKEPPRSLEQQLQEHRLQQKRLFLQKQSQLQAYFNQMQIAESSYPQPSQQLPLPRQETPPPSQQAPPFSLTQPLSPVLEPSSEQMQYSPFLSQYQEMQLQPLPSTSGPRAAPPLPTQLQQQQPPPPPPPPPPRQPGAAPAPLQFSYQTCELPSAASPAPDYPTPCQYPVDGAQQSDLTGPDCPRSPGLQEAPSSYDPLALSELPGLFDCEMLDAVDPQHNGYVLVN
pIC50: −log10 of the molar value.
reportedMetric: pIC50

Reference set (3 entries):
{"molecule": "CCCn1cc(-c2ccc3c(c2)ncn3-c2cc(OC)c(C(=O)NCC(F)(F)F)c(OC)c2)cn1 [compound 103]", "pIC50": "8.00 to 11.00"}
{"molecule": "COc1cc(-n2cnc3cc(-c4cnn(C)c4)ccc32)cc(OC)c1C(=O)N1CCC1C (stereo not shown) [compound 182]", "pIC50": "< 6.30"}
{"molecule": "COc1cc(-n2cnc3cc(-c4noc(C)n4)ccc32)cc(OC)c1C(=O)NCC(F)(F)F [Cpd 126]", "pIC50": "< 6.30"}

# context switch: different molecule, same pIC50
Prompt: Give the reported pIC50 for COc1cc(-n2cnc3cc(-c4cnn(C)c4)ccc32)cc(OC)c1C(=O)NC1CCCC[C@H]1N (stereo in doubt) [compound 139] (system: SIK2 (Homo sapiens, UniProt Q9H0K1)).
Completion: 8.00 to 11.00

---

target: SIK2 (Homo sapiens); construct: purchased ThermoFisher Scientific PV4792; experiment: biochemical; settings: 33P radioactive SIK kinase assay, AMARA peptide, 10 μM ATP
Exercise: for every item that follows, state its recorded IC50.

Sample records with IC50:
{"structureSmiles": "COc1cc(-c2cnc3cc(-c4cnn(C)c4)ccn23)cc2c1C(=O)N(CC(F)(F)F)CC2", "reportedMetric": "IC50", "result": "0.01 to 10 nM"}
{"structureSmiles": "COc1cc(-c2cnc3cc(-c4ccc(N5CCOCC5)nc4)ccn23)cc(OC)c1C(=O)NCC(F)(F)F", "reportedMetric": "IC50", "result": "0.01 to 10 nM"}
{"structureSmiles": "CCn1cc(-c2ccc3c(c2)ncn3-c2cc(OC)c(C(=O)NCC(F)F)c(OC)c2)cn1", "reportedMetric": "IC50", "result": "0.01 to 10 nM"}
{"structureSmiles": "CCNC(=O)c1c(OC)cc(-c2cnc3cc(-c4ccc(C#N)nc4)ccn23)cc1OC(F)F", "reportedMetric": "IC50", "result": "10 to 100 nM"}
{"structureSmiles": "COc1cc(-c2cnc3cc(-c4cn[nH]c4)ccn23)cc(OC)c1C(=O)NCC(F)(F)F", "reportedMetric": "IC50", "result": "0.01 to 10 nM"}
{"structureSmiles": "COc1cc(-n2cnc3cc(-c4cnn(C)c4)ccc32)cc(OC)c1C(=O)N[C@@H]1C[C@H]1C(F)F", "reportedMetric": "IC50", "result": "10 to 100 nM"}

Record IC50 for all entries; do not skip any.
1. COc1cncc(-c2ccc3c(c2)ncn3-c2cc(OC)c(C(=O)NCC(F)(F)F)c(OC)c2)c1
2. COc1cc(-n2cnc3cc(-c4cc(C)no4)ccc32)cc(OC)c1C(=O)NCC(F)(F)F

Completion:
1. 100 to 500 nM
2. 10 to 100 nM

---

For each record, write down the corresponding EC50.
test system: LPS-induced TNFα secretion in monocyte-derived macrophages (MdM); assay: MdM assay: LPS-triggered TNFα (ELISA); assay type: cell-based, human; details: Homo sapiens, Macrophage, LPS-triggered TNFα inhibition

{"compound": "COc1cc(-n2cnc3cc(-c4cnn(C)c4)ccc32)cc(OC)c1C(=O)NCC(F)(F)F [Cpd 25]", "EC50": "0.0001 to 0.1 µM"}

Give EC50 for each listed item.
1. COc1cc(-c2cnc3cc(-c4cncn4C)ccn23)cc(OC(F)F)c1C(=O)NC1CC1 [compound 274]
2. CCOC(=O)C(C)n1cc(-c2ccn3c(-c4cc(OC)c(C(=O)NCC(F)(F)F)c(OC)c4)cnc3c2)cn1 (centres unmarked) [compound 263]
3. COc1cc(-n2cnc3cc(-c4cnn(C)c4)ccc32)cc(OC)c1C(=O)N1CC(O)(C(F)(F)F)C1 [compound 219]

Completion:
1: 0.1 to 1 µM; 2: 0.0001 to 0.1 µM; 3: 0.1 to 1 µM

---

target: SIK2 (Homo sapiens); construct: purchased ThermoFisher Scientific PV4792; test: biochemical; details: 33P radioactive SIK kinase assay, AMARA peptide, 10 μM ATP
Consider the following compounds; for each one, report its IC50.

Illustrative cases are given below, each with its answer.
{"structureSmiles": "COc1cc(-c2cnc3cc(-c4cn(C)cn4)ccn23)cc(OC)c1C(=O)N[C@H](C)C(F)(F)F", "reportedMetric": "IC50", "result": "0.01 to 10 nM"}
{"structureSmiles": "COc1cc(-c2cnc3cc(-c4cnn(CC(=O)OC5CC5)c4)ccn23)cc(OC)c1C(=O)NCC(F)(F)F", "reportedMetric": "IC50", "result": "0.01 to 10 nM"}
{"structureSmiles": "COc1cc(-n2cnc3cc(-c4cnn(CC#N)c4)ccc32)cc(OC(F)F)c1C(=O)NC1CC1", "reportedMetric": "IC50", "result": "0.01 to 10 nM"}
{"structureSmiles": "COc1cc(-n2cnc3cc(-c4ccc(N5CCOCC5)nc4)ccc32)cc(OC)c1C(=O)NCC(F)(F)F", "reportedMetric": "IC50", "result": "10 to 100 nM"}

Below are 3 compounds. Give each one its IC50.
1. COc1cc(-n2cnc3cc(-c4cnn(C5CNC5)c4)ccc32)cc(OC)c1C(=O)NCC(F)(F)F
2. COc1cc(-n2cnc3cc(-c4cnn(C)c4)ccc32)cc(OC)c1C(=O)NCc1ccn(C)n1
3. COc1cc(-c2cnc3cc(-c4cnn(C)c4)ccn23)cc(OC)c1C(=O)N1CC(C(F)(F)F)C1

Completion:
1. 0.01 to 10 nM
2. 100 to 500 nM
3. 0.01 to 10 nM
